Assay Comment: Log D value at pH 7.4
Assay type: physicochemical
Setup Conditions: buffer
Experimental Endpoint: logD
Would you mind answering with just the numeric figure?

[in] // returns reported logD for input `Cc1c(S(=O)(=O)c2ccc(=O)[nH]n2)oc2ccc(Cl)cc12`
[out] 2.46

---

Assay Comment: Plasma t1/2 of compound was determined in diabetic rat
Type: ADME, organism-based
Experimental Endpoint: half-life (h)
Number in h, nothing else.

[in] // returns reported half-life for input `Cc1c(S(=O)(=O)c2ccc(=O)[nH]n2)oc2ccc(Cl)cc12`
[out] 26

---

Measured Target: Aldo-keto reductase family 1 member B1 (Homo sapiens, UniProt P15121)
Assay Comment: Inhibition of human recombinant Aldose reductase […]
Experimental Endpoint: pIC50
Expect pIC50 as a plain number equal to -log10 of the molar concentration.

O=c1ccc(S(=O)(=O)c2ccc(Cl)cc2Cl)n[nH]1	6.72
O=c1ccc(S(=O)(=O)c2ccc(Br)cc2F)n[nH]1	6.85
O=c1ccc(S(=O)(=O)c2cc3ccccc3o2)n[nH]1	6.82
O=c1ccc(S(=O)(=O)c2ccccc2Cl)n[nH]1	6.77

[in] // returns reported pIC50 for input `O=c1ccc(S(=O)(=O)c2ccc(F)cc2Cl)n[nH]1`
[out] 6.55

[in] // returns reported pIC50 for input `O=c1ccc(S(=O)(=O)c2cc3ccccc3[nH]2)n[nH]1`
[out] 5.30

[in] // returns reported pIC50 for input `Cc1c(S(=O)(=O)c2ccc(=O)[nH]n2)oc2ccc(Cl)cc12`
[out] 9.08

[in] // returns reported pIC50 for input `Cc1ccc(S(=O)(=O)c2ccc(O)nn2)cc1`
[out] 5.72

[in] // returns reported pIC50 for input `O=S(=O)(c1ccc(O)nn1)c1nc2ccccc2s1`
[out] 6.35

[in] // returns reported pIC50 for input `COc1ccc(S(=O)(=O)c2ccc(=O)[nH]n2)cc1`
[out] 5.70

---

Recorded pIC50, one value per entry.
Measured Target: Aldo-keto reductase family 1 member B1 (Homo sapiens)
Assay Comment: Inhibition of human recombinant Aldose reductase […]
Expect pIC50 as a plain number equal to -log10 of the molar concentration.

O=c1ccc(S(=O)(=O)c2cc3ccccc3s2)n[nH]1	6.82
O=S(=O)(c1ccc(O)nn1)c1ccccc1-c1ccccc1	5.66
O=c1ccc(S(=O)(=O)c2ccccc2Br)n[nH]1	6.68

Consider the additional molecule presented here.
[in] // returns reported pIC50 for input `O=S(=O)(c1ccccc1)c1ccc(O)nn1`
[out] 6.22
